Measured IC50 values are reported for all entries that follow.
target.of.assay: human sAC (Homo sapiens, UniProt Q96PN6)
Construct: made in house
assay.procedure: in vitro adenylyl cyclase assay with purified human sAC protein (cAMP by Correlate-EIA)
Type: biochemical
condition.summary: stimulated activity of human sAC in vitro (calcium and bicarbonate stimulated); read-out: hsACt-Stim. approximate IC50 (or the dose range where the IC50 should lie)

[[record]]
smiles_representation = "CCCOc1ccc(/C=N/NC(=O)CSc2nc3ccccc3[nH]2)cc1"
property = "IC50"
result = "10 to 100 µM"

[[record]]
smiles_representation = "CCOc1ccc(/C=N/NC(=O)CSc2nc3ccccc3[nH]2)cc1OC"
property = "IC50"
result = "> 100 µM"

[[record]]
smiles_representation = "O=C(CSc1nc2ccccc2[nH]1)N/N=C/c1cc([N+](=O)[O-])ccc1Cl"
property = "IC50"
result = "> 100 µM"

[[record]]
smiles_representation = "O=C(CSc1nc2ccccc2[nH]1)N/N=C/c1ccc(Cl)cc1Cl"
property = "IC50"
result = "10 to 100 µM"


Let's switch to this molecule now.
Enquiry: Returns the measured IC50 for the input molecule. Input: C/C(=N\NC(=O)CSc1nc2ccccc2[nH]1)c1ccco1
Return: > 100 µM

====

target.of.assay: human sAC (Homo sapiens, UniProt Q96PN6)
Construct: made in house
assay.procedure: in vitro adenylyl cyclase assay with purified human sAC protein (cAMP by Correlate-EIA)
Type: biochemical
condition.summary: 100 μM of compound; BASAL human sAC in vitro activity; read-out: % Inhibition (100 μM), hsACt-Basal
property: inhibition at 100 µM
Quick note: number first, unit second.

Example cases with answers are listed next.
[[record]]
smiles_representation = "Cn1c(SCC(=O)N/N=C/c2ccccn2)nc2ccccc21"
result = "0%"

[[record]]
smiles_representation = "O=C(CSc1nc2ccccc2[nH]1)N/N=C/c1cccc(F)c1"
result = "0%"

[[record]]
smiles_representation = "O=C(CSc1nc2ccccc2[nH]1)N/N=C/c1ccccc1C(=O)O"
result = "0%"

[[record]]
smiles_representation = "COc1cc(/C=N/NC(=O)CSc2nc3ccccc3[nH]2)cc(OC)c1OC(C)=O"
result = "40%"


Enquiry: Returns the measured inhibition at 100 µM for the input compound. Input: COc1cc(/C(C)=N\NC(=O)CSc2nc3ccccc3[nH]2)ccc1O
Return: 0%

====

target.of.assay: human sAC (Homo sapiens)
Construct: made in house
assay.procedure: in vitro adenylyl cyclase assay with purified human sAC protein (cAMP by Correlate-EIA)
Type: biochemical
condition.summary: 100 μM of compound; stimulated human sAC in vitro activity; read-out: % Inhibition (100 μM), hsACt-Stim.
Measured inhibition at 100 µM values are reported for all entries that follow.
Provide the reading as a plain figure in %.

Example cases with answers are listed next.
[[record]]
smiles_representation = "Cc1ccc(/C=N/NC(=O)CSc2nc3ccccc3[nH]2)cc1"
quantitative_readout = 0

[[record]]
smiles_representation = "C/C(=N\\NC(=O)CSc1nc2ccccc2[nH]1)c1ccc([N+](=O)[O-])cc1"
quantitative_readout = 25

[[record]]
smiles_representation = "CCOc1ccc(/C=N/NC(=O)CSc2nc3ccccc3[nH]2)cc1OC"
quantitative_readout = 20

[[record]]
smiles_representation = "O=C(CSc1nc2ccccc2[nH]1)N/N=C/c1cccc(F)c1"
quantitative_readout = 0

[[record]]
smiles_representation = "CCCOc1ccc(/C=N/NC(=O)CSc2nc3ccccc3[nH]2)cc1"
quantitative_readout = 70


Enquiry: Returns the measured inhibition at 100 µM for the input compound. Input: Cn1c(SCC(=O)N/N=C/c2cc(Br)ccc2O)nc2ccccc21
Return: 75

Enquiry: Returns the measured inhibition at 100 µM for the input compound. Input: C/C(=N/NC(=O)CSc1nc2ccccc2[nH]1)c1ccc(Cl)c(Cl)c1
Return: 80

Enquiry: Returns the measured inhibition at 100 µM for the input compound. Input: CC(C)c1ccc(/C=N/NC(=O)CSc2nc3ccccc3[nH]2)cc1
Return: 0

Enquiry: Returns the measured inhibition at 100 µM for the input compound. Input: C/C(=N\NC(=O)CSc1nc2ccccc2[nH]1)c1ccccc1
Return: 0

Enquiry: Returns the measured inhibition at 100 µM for the input compound. Input: COc1cc(/C=N/NC(=O)CSc2nc3ccccc3[nH]2)cc(OC)c1OC(C)=O
Return: 30

Enquiry: Returns the measured inhibition at 100 µM for the input compound. Input: Cc1ccc(Cn2c(SCC(=O)N/N=C/c3cc(Br)ccc3O)nc3ccccc32)cc1
Return: 75

Enquiry: Returns the measured inhibition at 100 µM for the input compound. Input: COc1ccc(/C=N/NC(=O)CSc2nc3ccccc3[nH]2)cc1
Return: 0

Enquiry: Returns the measured inhibition at 100 µM for the input compound. Input: O=C(CSc1nc2ccccc2[nH]1)N/N=C/c1cccc2ccccc12
Return: 50

====

target.of.assay: human sAC (Homo sapiens)
Construct: made in house
assay.procedure: in vitro adenylyl cyclase assay with purified human sAC protein (cAMP by Correlate-EIA)
Assay type: biochemical
condition.summary: 100 μM of compound; stimulated human sAC in vitro activity; read-out: % Inhibition (100 μM), hsACt-Stim.
property: inhibition at 100 µM
Quick note: number first, unit second.

[[record]]
compound = "COc1ccc(C2=NN(C(=O)CSc3nc4ccccc4[nH]3)C(c3ccc(F)cc3)C2)cc1 (stereo not drawn)"
property = "inhibition at 100 µM"
result = "90%"

[[record]]
compound = "O=C(CSc1nc2ccccc2[nH]1)N/N=C/c1ccc(Cl)cc1Cl"
property = "inhibition at 100 µM"
result = "90%"

[[record]]
compound = "O=C(CSc1nc2ccccc2n1Cc1ccccc1)N/N=C/c1cc(Br)ccc1O"
property = "inhibition at 100 µM"
result = "80%"

[[record]]
compound = "CC(Sc1nc2ccccc2[nH]1)C(=O)N/N=C/c1ccc([N+](=O)[O-])cc1 (stereo not drawn)"
property = "inhibition at 100 µM"
result = "50%"

[[record]]
compound = "O=C(CSc1nc2ccccc2[nH]1)N/N=C/c1ccc(O)c(O)c1"
property = "inhibition at 100 µM"
result = "80%"


Let's switch to this compound now.
Enquiry: Returns the measured inhibition at 100 µM for the input compound. Input: O=C(CSc1nc2ccccc2n1Cc1ccc(Cl)cc1)N/N=C\c1cc(Br)ccc1O
Return: 80%

====

target.of.assay: human sAC (Homo sapiens, UniProt Q96PN6)
Construct: made in house
Sequence (Q96PN6 1-469 limits assumed): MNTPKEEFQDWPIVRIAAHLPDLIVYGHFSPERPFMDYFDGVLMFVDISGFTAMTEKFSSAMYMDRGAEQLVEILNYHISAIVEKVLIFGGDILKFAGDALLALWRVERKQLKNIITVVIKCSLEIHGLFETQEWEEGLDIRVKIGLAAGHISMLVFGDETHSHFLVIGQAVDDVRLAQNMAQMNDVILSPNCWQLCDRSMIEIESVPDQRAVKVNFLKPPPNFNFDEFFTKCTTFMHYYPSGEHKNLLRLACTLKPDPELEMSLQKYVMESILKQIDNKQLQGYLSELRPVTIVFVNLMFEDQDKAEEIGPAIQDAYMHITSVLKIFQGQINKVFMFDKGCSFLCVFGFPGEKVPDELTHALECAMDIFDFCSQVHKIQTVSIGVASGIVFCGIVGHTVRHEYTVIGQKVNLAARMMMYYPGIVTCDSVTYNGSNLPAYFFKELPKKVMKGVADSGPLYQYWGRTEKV
assay.procedure: in vitro adenylyl cyclase assay with purified human sAC protein (cAMP by Correlate-EIA)
Assay type: biochemical
condition.summary: 100 μM of compound; BASAL human sAC in vitro activity; read-out: % Inhibition (100 μM), hsACt-Basal
Measured inhibition at 100 µM values are reported for all entries that follow.
Provide the reading as a plain figure in %.

Example cases with answers are listed next.
[[record]]
smiles_representation = "O=C(CSc1nc2ccccc2[nH]1)N/N=C/c1ccc(C(F)(F)F)cc1"
target_of_assay = "human sAC (Homo sapiens, UniProt Q96PN6)"
quantitative_readout = 0

[[record]]
smiles_representation = "C/C(=N\\NC(=O)CSc1nc2ccccc2[nH]1)c1ccco1"
target_of_assay = "human sAC (Homo sapiens, UniProt Q96PN6)"
quantitative_readout = 0


Let's switch to this compound now.
Enquiry: Returns the measured inhibition at 100 µM for the input compound. Input: Cc1ccc(Cn2c(SCC(=O)N/N=C/c3ccncc3)nc3ccccc32)cc1
Return: 0

====

Measured inhibition at 100 µM values are reported for all entries that follow.
target.of.assay: human sAC (Homo sapiens, UniProt Q96PN6)
Construct: made in house
assay.procedure: in vitro adenylyl cyclase assay with purified human sAC protein (cAMP by Correlate-EIA)
Assay type: biochemical
condition.summary: 100 μM of compound; BASAL human sAC in vitro activity; read-out: % Inhibition (100 μM), hsACt-Basal
Provide the reading as a plain figure in %.

[[record]]
smiles_representation = "O=C(CSc1nc2ccccc2[nH]1)N/N=C/c1ccc([N+](=O)[O-])cc1"
target_of_assay = "human sAC (Homo sapiens, UniProt Q96PN6)"
quantitative_readout = 50

[[record]]
smiles_representation = "O=C(CSc1nc2ccccc2[nH]1)N/N=C/c1ccc(O)c(O)c1"
target_of_assay = "human sAC (Homo sapiens, UniProt Q96PN6)"
quantitative_readout = 70

[[record]]
smiles_representation = "Cc1ccc(/C=N/NC(=O)CSc2nc3ccccc3[nH]2)cc1"
target_of_assay = "human sAC (Homo sapiens, UniProt Q96PN6)"
quantitative_readout = 0

[[record]]
smiles_representation = "C/C(=N/NC(=O)CSc1nc2ccccc2[nH]1)c1cccc(Br)c1"
target_of_assay = "human sAC (Homo sapiens, UniProt Q96PN6)"
quantitative_readout = 60


Enquiry: Returns the measured inhibition at 100 µM for the input compound. Input: C/C(=N/NC(=O)CSc1nc2ccccc2[nH]1)c1ccc(F)cc1
Return: 0
